EXPERIMENTAL_PROTOCOL: yeast display, Sf9 membrane polyspecificity reagent, FACS + sequencing; frameworks hold sequencing errors

# SEQUENCE_STRING, polyreactivity (PSR sort gate)
records = [
    ("QVQHVESGGGLVQAGGSLRLSCAASGSIFQKNAMGWYRKAPGKERELVAVITRGGTSTYYADSVKGRFTISRDNAKNTVYLQMNSLKPEDTAVYYCAAKADKRLDYWGQGTQVTVSS", "low polyreactivity"),
    ("QVQLVESGGGLVQAGGSLRLSCAASGYIFYIYAKGWNRQAPGKERELVAAISYSDGTTYYADSVKGRFTISRDNAKNTVYLQMNSLKAEDTAVYYCAADLWVGLVSLWDGYVEYDYWGQGTQVTVSS", "low polyreactivity"),
    ("QVQLVESGGGLVQAGGSLRLSCAASGSTFLPYAMGWYRQAPGKERELVAAITWRTGSTYYADSVKGRFTISRDNAKNTVYLQMNSLKPEDTAVYYCNAKQRGKFDYWGQGTQVTVSS", "low polyreactivity"),
]

* * *

EXPERIMENTAL_PROTOCOL: yeast display, Sf9 membrane polyspecificity reagent, FACS + sequencing; frameworks hold sequencing errors
RECORDED_METRIC: polyreactivity (PSR sort gate)

Below: 4 sequences and their reported polyreactivity (PSR sort gate).
# SEQUENCE_STRING, RECORDED_VALUE
measured = [
    ("QVQLVESGGGLVQAGGSLRLSCAASGRTFSQYAMGWYRQPPGKERELVASISWSGGSTYYADSVKGRFTISRDNAKNTVYLQMNSLKPEDTAVYYCAAVGKGSARSSYPVLYDYWGQGTQVTVSS", "low polyreactivity"),
    ("QVQLVESGGGLVQAGGSLRLSCAASGSTFSPYAMGWYRQAPGKERELVAGITGNGGSTRYADSVKGRFTISRDNAKNTVYLQMNSLKPEDTAVYYCAARWTRQRYRTSYYSWGQGTQVTVSS", "high polyreactivity"),
    ("QVQLVESGGGLVQAGGRLSLSCAASGITFLGYAMGWYREAPGKDSELVAAISSGGSTYYADSVKGRFTISRDNAKNTVYLQMNILKPEDTAVYYCAKAVYYRDPYGGDYWGQGTQVTVSS", "low polyreactivity"),
    ("QVQLVESGGRLVQARGSLRLSCAASRSTFPFYYMGWYRQAPGKERELVAAHTRRCGSTYYAVSVKGRFTISRDNGKNTFYLQMNSLKPEDTAVYYCAADDYTITIYYILDYWGQGTQVTVSS", "low polyreactivity"),
]

The sequence identified as QVQLVESGGGLVQAGGSLRLSCAASGSIFGAYGMGWYRQAPGKEREFVAAITGRGSTTYYADSVKGRFTISRDNAKNTVYLQMTSLKPEDTAVYYCNTRYRGLYHYPMGSWGQGTQVTVSS registered its polyreactivity (PSR sort gate) at high polyreactivity

* * *

EXPERIMENTAL_PROTOCOL: yeast display, Sf9 membrane polyspecificity reagent, FACS + sequencing; frameworks hold sequencing errors
RECORDED_METRIC: polyreactivity (PSR sort gate)

# SEQUENCE_STRING, RECORDED_VALUE
measured = [
    ("QVQLVESGGGLVQAGGSLRLSCAASGYTFYINTMGWYRQAPGKEREFVAAITWSGGSTYYADSVKGRFTISRDNAKNTVYLQMNSLIPEDTAVYYCAADLYVGDMDYWGQGTQVTVSS", "low polyreactivity"),
    ("QVQLVESRGGLVQAGGSLRLSCAASGRTFTLNAMGWYRQAPGKERELVARIDWRGITYADSVKGRFTISRDNAKNTVYLQMNSLKPEDTAVYYCAADYVQGFGFYYQWHYDYWGQGTQVTVSS", "low polyreactivity"),
    ("QVQLVESGGGLVQAGGSLRLSCAASGSIFGDNVMGWYRPAPGKERELVAAISRSGGSTYYADSVKGRFTISRDNAKNTVYVEMNSLIPEDSSVYYCAARYWSWRSFKVDYWGQGTQVTVSS", "high polyreactivity"),
    ("QVQLVESGGGLVQAGGSLRLSCAASGSIFLSNMGWYRQAPGKERELVAAISRNGGSTYYADSVKGRFTISRDNAKNTVYLQMNSLKPEDTAVYYCAVQRYWGQGTQVTVSS", "high polyreactivity"),
]

Proceed to the following item.
Just so you know, measured polyreactivity (PSR sort gate) for QVQLVESGGGLVQAGGSLRLSCAASGFIFGYNAMDWYRQAPGKERELVAAITSGGSTNYADSVKGRFTISRDNAKNTVYLQMNSLKPEDTAVYYCNTVPGDFRSITDDDWGQGTQVTVSS came out at low polyreactivity

Data provenance is the nanobody polyreactivity screen of Harvey et al. (2022).
